System: Thromboplastin B
Assay: Hydrolysis of chromogenic substrates by thromboplastin B
Format: biochemical
Conditions: Thromboplastin B 5%; substrate 50 μmol/l; after 92 hours at room temperature; 405 nm
Starred links: 1 amine or outer side, 2 acyl side, 3 side chain; linkers in the order of their positions; H or OH if unused. Non-standard residues stand in square brackets, D forms with d. Residues, ends and D or L forms follow the SMILES beside them. *: point of attachment. Benzoyl(5-NH,2-NO2) = O=C(c1cc(N[*:1])ccc1[N+](=O)[O-])[*:2]; Tos = Cc1ccc(S(=O)(=O)*)cc1
Measured Difference in extinction (hydrolysis of chromogenic substrate) by item

Previously resolved entries follow.
{"COMPOUND": "NCCCC[C@H](NC(=O)c1ccccc1)C(=O)Nc1ccc([N+](=O)[O-])cc1 [N-α-Benzoyl-L-Lysine-pNA, reference compound]", "MEASURED_VALUE": "0,525"}
{"COMPOUND": "Cc1ccc(S(=O)(=O)NCC(=O)N2CCC[C@H]2C(=O)N[C@@H](CCCNC(=N)N)C(=O)Nc2ccc([N+](=O)[O-])c(C(=O)NC(C)C)c2)cc1 [Tos-Gly-Pro-Arg-ANBA-isopropylamide]", "MEASURED_VALUE": "0,039"}
{"COMPOUND": "C[C@H](NC(=O)CCC(=O)O)C(=O)N[C@@H](C)C(=O)N[C@@H](C)C(=O)Nc1ccc([N+](=O)[O-])cc1 [Suc-(Ala)3-pNA, reference compound]", "MEASURED_VALUE": "0,324"}
{"COMPOUND": "CCOC(=O)CNC(=O)c1cc(NC(=O)[C@H](CCCNC(=N)N)NC(=O)[C@@H]2CCCN2C(=O)CNS(=O)(=O)c2ccc(C)cc2)ccc1[N+](=O)[O-] [Tos-Gly-Pro-Arg-ANBA-Glycine ethyl ester] (Tos-GPR[Benzoyl(5-NH,2-NO2)]G-OEt)", "MEASURED_VALUE": "0,034"}
{"COMPOUND": "CCCCNC(=O)c1cc(NC(=O)[C@H](CCCNC(=N)N)NC(=O)[C@@H]2CCCN2C(=O)[C@H](N)Cc2ccccc2)ccc1[N+](=O)[O-] [D-Phe-Pro-Arg-ANBA-n-Butylamide]", "MEASURED_VALUE": "0,023"}

Just so you know, measured Difference in extinction (hydrolysis of chromogenic substrate) for CC(C)NC(=O)c1cc(NC(=O)[C@H](CCCNC(=N)N)NC(=O)[C@@H]2CCCN2C(=O)[C@H](N)Cc2ccccc2)ccc1[N+](=O)[O-] [D-Phe-Pro-Arg-ANBA-isopropylamide, H-D-Phe-Pro-Arg-ANBA-isopropylamide] came out at 0,016

Just so you know, measured Difference in extinction (hydrolysis of chromogenic substrate) for CC(C)C[C@H](N)C(=O)Nc1ccc([N+](=O)[O-])cc1 [Leu-pNA, reference compound] came out at 0,681

Each recorded value in this set is attributed to patent US4784944A.
